# protocolText: NCI Yeast Anticancer Drug Screen. Data for the rad50 strain (AID 155);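 note: 0% = growth of vehicle-only cultures of the same strain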
# conditionNotes: S. cerevisiae rad50 strain growth inhibition; at 50.0 µM; active compounds read high
# Description: Growth inhibition of yeast strains with defined genetic alterations is measured as a screen for potential anti-cancer activity. Selected strains with alterations in DNA damage repair or cell cycle control were exposed to compounds and growth inhibition was measured relative to vehicle treated controls. The strain used in this assay is rad50
Compounds without any hit were thinned out: in the full panel of roughly 79,000, 15% have a hit.
quantityKind: growth inhibition (%)
Write the number in % without appending the unit.

Query :: Can you share its growth inhibition? I mean this compound: `COCCCCCOC`
Result :: 5.55

Query :: `CCCc1nc(N)[nH]c(=O)c1I` ?
Result :: -26

Query :: `Nc1ccc([N+](=O)[O-])c(Cl)c1` ?
Result :: 5.35
